molecular target: pooled human IgG (human IgG1,2,3 and 4)
I'd be grateful if you could share measured Enzyme Activity Endpoint Assay (purified): Fab′2 for these entries.
Hey, just the number and the unit after it is fine.

Per the record, PRT-352 (protein) MSQTEDSESLQRLRDIEDFQAEKKMQNVVYTKWLDGVDVKDHDFRKIVDGNSAYYATPLLNGRGFYDINKDFNRDSDKCAAAVAANMFHYWLDINRDNVDRFLRQNPEKHGIIELPDGQLKLSDFLNTYESDHGYRDKSKLFDFISENFNGPVWTDKLLDNYINGYAYNSKYGRTIEDPTKNTSKINFFKEVFNEKILTNNHSIRNQNEFSVLLIEALYTGKAIGLSYGPAGLRHGLGHIISVWGADLDADGNVVAIYVTDSDDKKLTIGDERVGLKRYKISTDDENRLRLTAYEETHNTGGQIRGLWTLDTGKYAWADYFDKTEQTGTDQAEQ has Enzyme Activity Endpoint Assay (purified): Fab′2 of 229 ng/µL

// field: Enzyme Activity Endpoint Assay (purified): Fab′2; key: PRT-489 (protein) MVTSVWTKGVTPPANFTQGEDVFHAPYVANQGWYDITKTFNGKDNLLCGAATAGNMLHWWFDQNKDQIERYLKEHPEKQKIIFNNQELFDLKAAIDTKDSQTDSKLFEYFKEKAFPYLSTKHLGVFPDHVLDMFINGYRLSLTNHGPTPVKEGSKDKRGGIFDAVFTRGVQSKLLTSRHDLKNKTLKEISDLIKQELTEGKALGLSHTYANVRINHVINLWGADFDSEGNLKAIYVTDSDTNASIGMKKYFVGVNSAGKVAISAKEIKEDNIGAQVLGLFTLSTGQDIWNQTNLEHHHHHH ; value = 0 ng/µL

Value of Enzyme Activity Endpoint Assay (purified): Fab′2 reported for the protein PRT-450 (protein) MVTSVWTKGVTPPTDFRKIVDGNIAYYHAPYKAGQGWYDITKAFDGGDDLLCGAATAGNMLHWWFDQNKDQIEAYLKEHPEKQKINFNGEQMFDVKEAIDTKDDQTNSELFNYFKEKAFPYLSTKHLGVFPDHVLDMFINGYRLSLTNHGPTPVKEGSKDPRGGIFDAVFTRGDQSKLLTSRHDLKNKTLKEISDLIKQELTEGKALALSHTYANVRINHVINLWGADFDSNGNLEAIYVTDSDSNASIGMKKYFVGVNSAGKVAISAKEIEDDNIGAQVLGLFTLSTGQDIWNQTNLEHHHHHH is 300 ng/µL

In plain terms, PRT-472 (protein) MVTSVWTKGVTPPTDFIYGEDVLHAPYKAGQGWYDITKTFNGKDDLLCGAATAGNMLHWWFDQNKEQIENYLKKHPEKQKINFNGEQMFDVKEAIDTKDSQLDSKLFEYFKEKAFPYLSTKHLGVFPDHVIDMFINGYRLSLTNHGPTPVKRGSKDPRGGIFDAVFTRGDQSKLLTNRHDLKNKTLKEISDLIKQELTEGKALGISHTYANVRINHVINLWGADFDAEGNLEAIYVTDSDSNASIGMKKYFVGVNSNGKVAISAKEIEEDNIGAQVLGLFTLSTGQDIWNQTNLEHHHHHH has a documented Enzyme Activity Endpoint Assay (purified): Fab′2 of 1130 ng/µL

get_value(item= PRT-370 (protein) MSQTEDSESLQRLRDIEDFQAEKKDQNVVYTKWLDGVDVKDHDFRKIVDGNSAYYATPLLNGRGWYDINKDFNRDNDKCAAAVAANMFHYWLDRNRDNVDRFLRQNPEKHGIIELPDGQLKLSDFLNTYESDDGYRDKSKLFDFISENFNGPVWTDKLLDNYINGYAYNYKYGRTIEDSTKNTSKINFFKEVFNEKILTNNHSIRNQNEFSVLLIEALYTGKAIGLSYGPAGLRHSLGHIISVWGADLDADGNVVAIYVTDSDDKKLTIGDERVGLKRYKISTDDEGRLRLTAYEETHNTGGQVRGLWTLDTGKQAWADYFDKTEQTGTDQAEQ , readout=Enzyme Activity Endpoint Assay (purified): Fab′2) returns 654 ng/µL

response.value for PRT-492 (protein) MVTSVWTKGVTPPTDFRKIVDGNIAYYHAPYKAGQGWYDITKAFDGGDNLLCGAATAGNMLHWWFDQNKEQIENYLKKHPEKQKIIFNNQELFDLKAAIDTKDSQTNSELFNYFKEKAFPYLSTKHLGVFPDHVIDMFINGYRLSLTNHGPTPVKRGSKDKRGGIFDAVFTRGVQSKLLTNRHDLKNKTLKEISDLIKQELTEGKALGISHTYANVRINHVINLWGADFDAEGNLEAIYVTDSDTNASIGMKKYFVGVNSNGKVAISAKEIEEDNIGAQVLGLFTLSTGQDIWNQTNLEHHHHHH (field: Enzyme Activity Endpoint Assay (purified): Fab′2) = 54 ng/µL

# Enzyme Activity Endpoint Assay (purified): Fab′2 of PRT-524 (protein) MITSVWTKGVTPPTDFRKIVDGNIAYYHAPYKAGQGWYDITKAFDGGDNLLCGAATAGNMLHWWFDQNKEEIEAYLKKHPEKQKIIFNNQELFDLKAVINTKDSQTNSALFNYFKDKAFPNLSARRLGVFPDLVLDMFINGYYLNVYKTQTTDVNRTYQTKDRRGGIFDAVFTRGVQSKLLTERHDLKNKTLKEISDLIKQELTEGKALGLSHTYANVRINHVINLWGADFDSNGNLEAIYVTDSDTNASIGMKKYFVGVNSAGKVAISAKEIKEDNIGAQVLGLFTLSTGQDIWNQTNLEHHHHHH = 474 ng/µL

The protein listed as PRT-689 (protein) MQITSVWTKGVTPLTMDQFTNNNEDVIHAPYKPGQGWYDITKTFDGKDNLLCGAATAGNMLHWWFDQNKEEIENYLKKHPEKQKIIFNNQKLFDLRKAINTKDSQTNSALFNYFRDKAFPNLSARQLGVMPDLVLDMFINGYYLNVFKTQSTDVNREYQTKDKRGGIFDDVFGRGDQTTLLTARHDLKNGGLNDISQIIKQELSSGKALALSHTYANVSISHVINLWGADFNEEGNLEAIYVTDSDANASIGMKKYYVGKNAHGKVAISAKKIEGENIGAQVLGLFTLSSGKEIWQKLSLEHHHHHH shows Enzyme Activity Endpoint Assay (purified): Fab′2 equal to 335 ng/µL

Enzyme Activity Endpoint Assay (purified): Fab′2 reported for this protein PRT-688 (protein) MQITSVWTKGVTPLTMDDFTINNEDVIHAPYVANQGWYDITKTFNGKDNLLCGAATAGNMLHWWFDQNKEEIERYLKKHPEKQKIIFNNQELFDLKEAINTKDSQTDSKLFNYFRDKAFPNLSARQLGVMPDLVLDMFINGYYLNVFKTQSTDVNRPYDTKDKRGGIFDHVFTRGDQSTLLTARHDLKNKTLKEISDIIKQELTEGKALALSHTYANVSISHVINLWGADFNAEGNLEAIYVTDSDANASIGMKKYYVGVNSHGKVAISAKKIEGENIGAQVLGLFTLSSGKDIWQKLSLEHHHHHH : 0 ng/µL
